assay-target: influenza virus minigenome (PB2, PB1, PA, NP, Luciferase reporter), Hubei (Influenza A virus)
test-settings: read-out: RNP_Hubei EC50
observation-type: EC50
Hi, when you answer, please include the unit after the number. Thanks!

Exercise: Which EC50 is reported for this compound? `O=C1c2c(O)c(=O)cnn2[C@@H]([C@@H](c2cccc(F)c2)c2ccc(F)c(F)c2)[C@H]2CCCN12`
Solution: 43 nM
